- Test system: Mus musculus
- Test details: Toxicity in mouse S180 cells allografted mouse assessed as brain weight at 1 umol/kg, ip for 7 consecutive days measured 24 hrs after last dose (reference value: 0.30 +/- 0.02 g)
- Type: organism-based, CCRF S-180
- Test settings: in vivo
Counter-ions that a name gives are not always drawn.
Form field: Activity (one value per entry).
Write the number in g without appending the unit.

Some solved cases for reference:
[
  {
    "Molecule": "CC(C)[C@H](NC(=O)[C@H](Cc1c[nH]c2ccccc12)NC(=O)[C@H](Cc1c[nH]c2ccccc12)NC(=O)c1cc2ccc(O)cc2oc1=O)C(=O)OCc1ccccc1",
    "Quantity measured": "Activity",
    "Recorded value": 0.26
  },
  {
    "Molecule": "CC(C)C[C@H](NC(=O)[C@H](Cc1c[nH]c2ccccc12)NC(=O)[C@H](Cc1c[nH]c2ccccc12)NC(=O)c1cc2ccc(O)cc2oc1=O)C(=O)OCc1ccccc1",
    "Quantity measured": "Activity",
    "Recorded value": 0.28
  }
]

### Prompt State, in one line, measured Activity of COc1cccc2c1C(=O)c1c(O)c3c(c(O)c1C2=O)C[C@@](O)(C(=O)CO)C[C@@H]3O[C@H]1C[C@H](N)[C@H](O)[C@H](C)O1 [DOXORUBICIN HYDROCHLORIDE]
### Response 0.29

----------
- Tested on: Mus musculus
- Test details: Neurotoxicity in mouse S180 cells allografted mouse assessed as induction of jumping behaviors at 1 umol/kg, ip for 7 consecutive days
- Type: toxicity, organism-based, CCRF S-180
- Test settings: in vivo
Quantity measured: Activity

[
  {
    "Compound structure": "O=C(C[C@H](NC(=O)[C@H](Cc1c[nH]c2ccccc12)NC(=O)[C@H](Cc1c[nH]c2ccccc12)NC(=O)c1cc2ccc(O)cc2oc1=O)C(=O)OCc1ccccc1)OCc1ccccc1",
    "Activity": "Non-toxic"
  },
  {
    "Compound structure": "O=C(N[C@@H](Cc1c[nH]c2ccccc12)C(=O)N[C@@H](Cc1c[nH]c2ccccc12)C(=O)N1CCC[C@H]1C(=O)OCc1ccccc1)c1cc2ccc(O)cc2oc1=O",
    "Activity": "Non-toxic"
  },
  {
    "Compound structure": "O=C(O)c1cc2ccc(O)cc2oc1=O",
    "Activity": "Non-toxic"
  },
  {
    "Compound structure": "O=C(CC[C@H](NC(=O)[C@H](Cc1c[nH]c2ccccc12)NC(=O)[C@H](Cc1c[nH]c2ccccc12)NC(=O)c1cc2ccc(O)cc2oc1=O)C(=O)OCc1ccccc1)OCc1ccccc1",
    "Activity": "Non-toxic"
  },
  {
    "Compound structure": "C[C@@H](O)[C@H](NC(=O)[C@H](Cc1c[nH]c2ccccc12)NC(=O)[C@H](Cc1c[nH]c2ccccc12)NC(=O)c1cc2ccc(O)cc2oc1=O)C(=O)OCc1ccccc1",
    "Activity": "Non-toxic"
  }
]

### Prompt Supply reported Activity belonging to this compound: "O=C(N[C@@H](Cc1c[nH]c2ccccc12)C(=O)N[C@@H](Cc1c[nH]c2ccccc12)C(=O)N[C@@H](Cc1ccccc1)C(=O)OCc1ccccc1)c1cc2ccc(O)cc2oc1=O"
### Response Non-toxic

### Prompt Could you please provide reported Activity for "O=C(N[C@@H](Cc1c[nH]c2ccccc12)C(=O)N[C@@H](Cc1c[nH]c2ccccc12)C(=O)OCc1ccccc1)c1cc2ccc(O)cc2oc1=O" ? Thanks!
### Response Non-toxic

### Prompt Using the record for "CC[C@H](C)[C@H](NC(=O)[C@H](Cc1c[nH]c2ccccc12)NC(=O)[C@H](Cc1c[nH]c2ccccc12)NC(=O)c1cc2ccc(O)cc2oc1=O)C(=O)OCc1ccccc1" , state its measured Activity.
### Response Non-toxic

### Prompt Specify measured Activity for "O=C(N[C@@H](Cc1c[nH]c2ccccc12)C(=O)N[C@@H](Cc1c[nH]c2ccccc12)C(=O)N[C@@H](CO)C(=O)OCc1ccccc1)c1cc2ccc(O)cc2oc1=O" .
### Response Non-toxic

### Prompt Entry "O=C(N[C@@H](Cc1c[nH]c2ccccc12)C(=O)N[C@@H](Cc1c[nH]c2ccccc12)C(=O)N[C@@H](Cc1c[nH]c2ccccc12)C(=O)OCc1ccccc1)c1cc2ccc(O)cc2oc1=O" needs its Activity filled in; supply it.
### Response Non-toxic

### Prompt # return recorded Activity for input "CC(C)C[C@H](NC(=O)[C@H](Cc1c[nH]c2ccccc12)NC(=O)[C@H](Cc1c[nH]c2ccccc12)NC(=O)c1cc2ccc(O)cc2oc1=O)C(=O)OCc1ccccc1"
### Response Non-toxic

### Prompt Look up Activity of "O=C(N[C@@H](Cc1c[nH]c2ccccc12)C(=O)N[C@@H](Cc1c[nH]c2ccccc12)C(=O)N[C@@H](Cc1ccc(O)cc1)C(=O)OCc1ccccc1)c1cc2ccc(O)cc2oc1=O" and report it.
### Response Non-toxic

### Prompt Let me know recorded Activity for "O=C(CNC(=O)[C@H](Cc1c[nH]c2ccccc12)NC(=O)[C@H](Cc1c[nH]c2ccccc12)NC(=O)c1cc2ccc(O)cc2oc1=O)OCc1ccccc1" , thanks.
### Response Non-toxic

### Prompt # return recorded Activity for entry "CC(C)[C@H](NC(=O)[C@H](Cc1c[nH]c2ccccc12)NC(=O)[C@H](Cc1c[nH]c2ccccc12)NC(=O)c1cc2ccc(O)cc2oc1=O)C(=O)OCc1ccccc1"
### Response Non-toxic

----------
The entries below are paired with their reported Activity.
- Tested on: Mus musculus
- Test details: Toxicity in mouse S180 cells allografted mouse assessed as kidney weight at 1 umol/kg, ip for 7 consecutive days measured 24 hrs after last dose (reference value: 0.16 +/- 0.04 g)
- Type: organism-based, CCRF S-180
- Test settings: in vivo
Units required after the number.

Answered cases to consult:
[
  {
    "Compound structure": "O=C(CNC(=O)[C@H](Cc1c[nH]c2ccccc12)NC(=O)[C@H](Cc1c[nH]c2ccccc12)NC(=O)c1cc2ccc(O)cc2oc1=O)OCc1ccccc1",
    "Activity": "0.2 g"
  },
  {
    "Compound structure": "O=C(N[C@@H](Cc1c[nH]c2ccccc12)C(=O)N[C@@H](Cc1c[nH]c2ccccc12)C(=O)N[C@@H](Cc1c[nH]c2ccccc12)C(=O)OCc1ccccc1)c1cc2ccc(O)cc2oc1=O",
    "Activity": "0.17 g"
  },
  {
    "Compound structure": "CC[C@H](C)[C@H](NC(=O)[C@H](Cc1c[nH]c2ccccc12)NC(=O)[C@H](Cc1c[nH]c2ccccc12)NC(=O)c1cc2ccc(O)cc2oc1=O)C(=O)OCc1ccccc1",
    "Activity": "0.17 g"
  }
]

Note: attention shifts to another entry.
### Prompt Using the record for "O=C(N[C@@H](Cc1c[nH]c2ccccc12)C(=O)N[C@@H](Cc1c[nH]c2ccccc12)C(=O)N[C@@H](Cc1ccccc1)C(=O)OCc1ccccc1)c1cc2ccc(O)cc2oc1=O" , state its measured Activity.
### Response 0.17 g
